Provide the recorded Activity for the entries that follow.
System: Mus musculus
assay_comment: Inhibition of SERT-mediated serotonin-reuptake assessed as 5-hydroxytryptophan induced mouse head twitch at 1.62 mM/kg, ip after 20 mins
Format: functional
Design: scale not given: the % may be the effect or the level left
Record the value in %, omitting the unit from your answer.

[in] I have this compound here, CN(C)CCCC1(c2ccc(F)cc2)OCc2cc(C#N)ccc21 (stereo not given) [CITALOPRAM] , and I need its recorded Activity.
[out] 50

[in] I would be grateful if you could share the reported Activity for CN1C2CCC1CC(Oc1ccc(C#N)cc1)(c1ccccc1)C2 (stereo not given) .
[out] 16.67

[in] Item under review: CN(C)CCCN1c2ccccc2CCc2ccc(Cl)cc21 [CLOMIPRAMINE] . Reported Activity?
[out] 50

[in] Field request: Activity | item: CN1C2CCC1CC(Oc1ccc(C#N)cc1)(c1ccc(F)cc1)C2 (stereo not given)
[out] 33.33

[in] Request the reported Activity associated with CN1C2CCC1CC(Oc1ccc([N+](=O)[O-])cc1)(c1ccccc1)C2 (stereo not given)
[out] 33.33

----------
Tested on: Mus musculus
assay_comment: Inhibition of NET-mediated norepinephrine-reuptake assessed as yohimbine induced mortality in mouse at 12.94 mM/kg, ip after 24 hrs
Assay type: functional
Set-up: scale not given: the % may be the effect or the level left
Please respond with reported Activity for every item in the list.
Write the answer as a number in %, unit excluded.

[in] Query: Activity; subject: CN(C)CCCC1(c2ccc(F)cc2)OCc2cc(C#N)ccc21 (centres undefined)
[out] 16.67

[in] Given CN1C2CCC1CC(Oc1ccc(C#N)cc1)(c1ccccc1)C2 (centres undefined) , state its recorded Activity.
[out] 83.33

[in] So what's the measured Activity for this one? CN1C2CCC1CC(Oc1ccc(C(F)(F)F)cc1)(c1ccccc1)C2 (centres undefined)
[out] 66.67

[in] Name the reported Activity value associated with the compound CN1C2CCC1CC(Oc1ccc([N+](=O)[O-])cc1)(c1ccccc1)C2 (centres undefined)
[out] 50

[in] Activity for CNCCC(Oc1ccc(C(F)(F)F)cc1)c1ccccc1 (centres undefined) ?
[out] 0

[in] # Activity lookup, item CN1C2CCC1CC(Oc1ccc(Br)cc1)(c1ccccc1)C2 (centres undefined)
[out] 50

[in] Bench note: what Activity did CN1C2CCC1CC(Oc1ccc(Cl)cc1)(c1ccccc1)C2 (centres undefined) show?
[out] 33.33

[in] Item under review: CN1C2CCC1CC(Oc1cccc(C(F)(F)F)c1)(c1ccccc1)C2 (centres undefined) . Reported Activity?
[out] 33.33

[in] Would you kindly share the measured Activity for CN1C2CCC1CC(Oc1ccc(C#N)cc1)(c1ccc(F)cc1)C2 (centres undefined) ?
[out] 100
